System: H146 cells
Assay: H146 cell viability, MTT assay
Type: cell-based
Details: Homo sapiens, NCI-H146, 48 h, 48 h exposure
# if measured IC50 < 7 nM: condition met  # else: condition not met

Answered cases to consult:
>>> class("Cc1cc(N(C)c2nc(C(=O)O)c(CCCOc3ccc(C#CCNCCN(C)C)cc3F)s2)nnc1Nc1nc2ccccc2s1")
"condition not met"
>>> class("Cc1cc(N(C)c2nc(C(=O)O)c(C3CCN(S(=O)(=O)c4ccccc4)CC3)s2)nnc1Nc1nc2ccccc2s1")
"condition not met"
>>> class("CNCC#Cc1ccc(OCCCc2sc(N(CCC[N+](C)(C)C)c3cc(C)c(Nc4nc5ccccc5s4)nn3)nc2C(=O)[O-])c(F)c1")
"condition not met"
>>> class("CNCC#Cc1ccc(OCCCc2sc(N(CCCC(O)CN(C)CCP(=O)(O)O)c3cc(C)c(Nc4nc5ccccc5s4)nn3)nc2C(=O)O)c(F)c1 (stereo not drawn)")
"condition not met"
>>> class("Cc1cc(N(CCCCCNCCCN2CCN(C)CC2)c2nc(C(=O)O)c(CCCOc3ccc(C#CCN(C)C)cc3F)s2)nnc1Nc1nc2ccccc2s1")
"condition not met"

Let's switch to this compound now.
Hello, I'm reviewing records and need to know if IC50 of CN(C)CC#Cc1ccc(OCCCc2sc(N(C)c3cc(C4CC4)c(Nc4nc5ccccc5s4)nn3)nc2C(=O)O)c(F)c1 is below 7 nM. Could you check?
condition met
